All values here come from the supplement of paper PMC9170038.

Tested on: MS2 coat protein
assay.overview: apparent KD of MS2 coat protein; designed switch direction (-1 OFF switch, 1 ON switch): -1; higher = weaker reporter binding
setup.conditions: input ligand: FMN 200 uM
Reported values of apparent KD of MS2 coat protein for individual entries
Reply numerically in nM, unit not repeated.

## Task Request the reported apparent KD of MS2 coat protein associated with GCACGGUUGGUAGGAUAUCCUUGCGAUUAGCAAGGAGAAGGACCACAUGAGGAUCACCCAUGUACCUCAAUUGUCCUUCCGUGC [Eli exng1 - 026] (Eterna round: R96, puzzle: Exclusion NG 1)
## Result 18.5

Kindly review the next sequence as well.
## Task Request the reported apparent KD of MS2 coat protein associated with CAUGUAAGUCGUUGAUCCAACAUGAGGAUCACCCAUGUCACUUUAGCUUUUUGCUCGUCUUAUCCUCCUUUGUUCAC [JR_STOV1_v2_Sub0100] (Eterna round: R97, puzzle: Sensor, turn-off variant 1)
## Result 482
